# Assay info: qHTS for Inhibitors of Plasmodium falciparum (HB3) proliferation (AID 504318); further: nearly all actives have a fitted effect of over 60% in size
# Measurement context: P. falciparum HB3 in erythrocytes, SYBR Green DNA, 72 h; series mostly up to 7.21 µM
Inconclusive results are not listed. The source made the active and inactive calls. The call rests on the fitted dose curve; in most records, active means well fitted inhibition curve with a large enough effect; inconclusive means small, poorly fitted or top-dose-only effect; inactive means flat fitted curve, though single readings scatter.
Outcomes: class 1 = active, class 0 = inactive

{"Molecule": "CCN1C(=O)N(C)[C@@H](c2ccccc2)C(C(C)=O)=C1C", "Answer label": "class 0"}
{"Molecule": "COCC(=O)N1CCc2nc(COc3ccccc3)c3c(c2C1)CO[C@@H](C)C3", "Answer label": "class 0"}
{"Molecule": "CC[C@@H](C)CN1C(=O)N[C@@H](c2ccccc2)C(C(C)=O)=C1C", "Answer label": "class 0"}
{"Molecule": "CCCCC1=CC2=CC(=O)C(C)(OC(=O)CC)C(=O)C2=CN1CCc1ccccn1 (stereo not drawn)", "Answer label": "class 0"}
{"Molecule": "O=C1C=CC2(OCCCO2)C(Br)=C1CO", "Answer label": "class 0"}
{"Molecule": "CCN1C(=O)N[C@@H](c2cccs2)C(C(=O)OC)=C1C", "Answer label": "class 0"}
{"Molecule": "CCOC(=O)CN1C(=O)N[C@@H](c2cccc(C(F)(F)F)c2)[C@H](C(=O)OC)[C@H]1C", "Answer label": "class 0"}
{"Molecule": "COC(=O)CCCC1=CC2=C(c3ccccc3)C(=O)C(C)(OC(=O)C3CCCC3)C(=O)C2=CN1Cc1ccccc1 (stereo not drawn)", "Answer label": "class 0"}
{"Molecule": "COC(=O)C1=C(C(=O)OC)[C@@H]2N(Cc3ccccc3)c3ccccc3[C@@]23C[C@@H](C(=O)OC)N(S(=O)(=O)c2ccc4c(c2)OCCN4C)C3=N1", "Answer label": "class 1"}
{"Molecule": "COc1cccc([C@@H]2Oc3ccc(Br)cc3C(=O)[C@@H]2OC(=O)Nc2cc(OC)c(OC)c(OC)c2)c1", "Answer label": "class 0"}
{"Molecule": "C=CCNC(=O)N1C2=NC(C(=O)OC)=C(C(=O)OC)[C@@H]3N(Cc4ccccc4)c4ccccc4[C@]23C[C@H]1C(=O)OC", "Answer label": "class 1"}
{"Molecule": "COC(=O)C1=C(C(=O)OC)[C@@H]2N(C)c3ccc(OC)cc3[C@@]23C[C@@H](C(=O)OC)N(S(=O)(=O)c2ccc(OC)cc2)C3=N1", "Answer label": "class 0"}
{"Molecule": "CCOC(=O)CN1C(=O)N[C@@H](c2cccc(C(F)(F)F)c2)C(C(=O)OC)=C1C", "Answer label": "class 0"}
{"Molecule": "CCCCC1=CC2=CC(=O)C(C)(OC(=O)CC)C(=O)C2=CN1Cc1ccccc1 (stereo not drawn)", "Answer label": "class 0"}
{"Molecule": "CCOC(=O)CN1C(=O)N[C@@H](CCc2ccccc2)[C@H](C(C)=O)[C@H]1C", "Answer label": "class 0"}
{"Molecule": "CC#CCN1c2ccccc2[C@]23C[C@@H](C(=O)OC)N(C(=O)c4ccco4)C2=NC(C(=O)OC)=C(C(=O)OC)[C@H]13", "Answer label": "class 0"}
{"Molecule": "CCCCC1=CC2=CC(=O)C(C)(OC(=O)CC)C(=O)C2=CN1CCc1c[nH]c2ccccc12 (stereo not drawn)", "Answer label": "class 0"}
{"Molecule": "COC(=O)C1=C(C(=O)OC)[C@@H]2N(Cc3ccccc3)c3ccccc3[C@@]23C[C@@H](C(=O)OC)N(S(=O)(=O)c2ccc(C)cc2)C3=N1", "Answer label": "class 1"}
